Data provenance: patent US20200024278A1

compounds and their reported MIC
System: PAE UFR48
ASSAY REMARKS: MIC, broth microdilution (CLSI), substance alone or ATB combined with compound at 4 or 8 μg/mL
Type: cell-based, P. aeruginosa
TEST CONDITIONS: Pseudomonas aeruginosa, antibiotic alone; PAE UFR48; read-out: MIC ATB alone
Field format: number, assumed µg/mL, no unit text.

Example cases with answers are listed next.
# COMPOUND, SYSTEM TESTED, RECORDED METRIC, EXPERIMENTAL VALUE
measured = [
    ("CCN1CCN(C(=O)N[C@@H](C(=O)N[C@@H]2C(=O)N3[C@@H]2SC(C)(C)[C@@H]3C(=O)O)c2ccccc2)C(=O)C1=O [PIP, Piperacillin, reference compound]", "PAE UFR48", "MIC", 256),
    ("C[C@@H](O)[C@H]1C(=O)N2C(C(=O)O)=C(S[C@@H]3CN[C@H](C(=O)N(C)C)C3)[C@H](C)[C@H]12 [MEM, Meropenem]", "PAE UFR48", "MIC", 4),
    ("CO/N=C(\\C(=O)N[C@@H]1C(=O)N2C(C(=O)[O-])=C(C[N+]3(C)CCCC3)CS[C@H]12)c1csc(N)n1 [FEP, Cefepime]", "PAE UFR48", "MIC", 64),
]

Ask: Can you share its MIC? I mean this compound: C[C@@H]1O[C@@H]1P(=O)(O)O [FOS, Fosfomycin, reference compound]
Result: 16
